- Tested on: Eotaxin-3 (CCL26) release in human whole blood stimulated with IL-4
- ASSAY NAME: Human whole blood eotaxin-3 assay (IL-4 stimulated, Eotaxin-3 release)
- Type: cell-based
- CONDITION DESCRIPTION: Homo sapiens, Hec50, 48 h
Hi there, I'd appreciate the recorded pEC50 for every entry that follows.
Answers are plain numbers, as −log10 of the molar value.

In [3]: df
Out[3]:
                                   compound  observed
0  [2H]C([2H])([2H])N(C(=O)c1ccc(C2CCN([C@@H](C)c3cc4c(-c5ncc(N)cc5OC)ccnc4n3C)CC2)cc1)C([2H])([2H])[2H]      5.96

Go through the list and state pEC50 for each entry.
1. CN(C)C(=O)c1ccc(C2CCN(Cc3cc4c(-c5ccc(N)c(C(=O)O)n5)ccnc4n3C)CC2)cc1
2. CNc1ccc(-c2ccnc3c2cc([C@H](C)N2CCC(c4ccc(C(=O)N(C)C)cc4)CC2)n3C)c(C#N)n1
3. CNc1ccc(-c2ccnc3c2cc([C@@H](C)N2CCC(c4ccc(C(=O)N(C)C)cc4)CC2)n3C)cn1 (single isomer, unassigned)
4. CNc1ccc(-c2ccnc3c2cc(CN2CC=C(c4c(C)cc(C(=O)N(C)C)cc4C)CC2)n3C)nn1
5. Cc1cc(C(=O)N(C)C)cc(F)c1C1=CCN([C@H](C)c2cc3c(-c4ccc(N)cn4)ccnc3n2C)CC1
6. CNc1ccc(-c2ccnc3c2cc(CN2CC=C(c4ncc(C(=O)N(C)C)cc4C)CC2)n3C)cn1
7. Cc1nc(-c2ccnc3c2cc(CN2CCC(c4ccc(C(=O)N(C)C)cc4)CC2)n3C)ccc1N

Given back:
1: 5.14; 2: 6.94; 3: 6.43; 4: 6.62; 5: 6.37; 6: 5.30; 7: 5.12

For every item in the list below, what is its measured pEC50?
1. [2H]C([2H])([2H])N(C(=O)c1ccc(C2CCN([C@@H](C)c3cc4c(-c5ccc(NCCOC)nc5)ccnc4n3C)CC2)cc1)C([2H])([2H])[2H]
2. C[C@@H]1C[C@H](c2ccc(C(=O)N(C)C)cc2)CCN1Cc1cc2c(-c3ccc(N)nc3C#N)ccnc2n1C (single isomer, unassigned)
3. C[C@H](c1cc2c(-c3ccc(N)nc3)ccnc2n1C)N1CCC(c2ccc(C(=O)N(C)C)cc2)CC1

Given back:
1. 6.33
2. 6.86
3. 6.61

Quick request: pEC50 for each listed item, please.
1. CN(C)C(=O)c1ccc(C2CCN(Cc3cc4c(-c5cnc(N)nc5)ccnc4n3C)CC2)cc1
2. Cc1cc(C(=O)N(C)C)ccc1C1=CCN([C@@H](C)c2cc3c(-c4ccc(N)nc4C#N)ccnc3n2C)CC1

Given back:
4.85
4.80

---

- System: Eotaxin-3 (CCL26) release in human whole blood stimulated with IL-4
- ASSAY NAME: Human whole blood eotaxin-3 assay (IL-4 stimulated, Eotaxin-3 release)
- Type: cell-based
- CONDITION DESCRIPTION: Homo sapiens, Hec50, 48 h
READOUT LABEL: EC50 (nM)
Numbers only, in nM.

Look over these answered cases.
>>> df
                                   compound  readout_label  observed
0  CN(C)C(=O)c1cc(F)c(C2=CCN(Cc3cc4c(-c5ccc(N)nc5)ccnc4n3C)CC2)c(C2CC2)c1 [Example 1z35]           EC50      81.8
1  CN(C)C(=O)c1ccc(C2=CCN(Cc3cc4c(-c5ccc(N)nn5)ccnc4n3C)CC2)c(Cl)c1 [Example 1af77]           EC50       871
2  Cc1cc(C(=O)N(C)C)cnc1C1=CCN(Cc2cc3c(-c4ccc(N)nn4)ccnc3n2C)CC1 [Example 1ae22]           EC50       392
3  C[C@@H]1C[C@H](c2ccc(C(=O)N(C)C)cc2)CCN1Cc1cc2c(-c3ccc(N)cn3)ccnc2n1C (single isomer, unassigned) [Example 1q1]           EC50       370
4  [2H]C([2H])([2H])N(C(=O)c1ccc(C2CCN([C@@H](C)c3cc4c(-c5ccc(N)c(C)n5)ccnc4n3C)CC2)cc1)C([2H])([2H])[2H] [Example 1af66]           EC50       611

Pending compound:
Asked: Fill in the blank: the reported EC50 of CN(C)C(=O)c1cc(F)c(C2=CCN(Cc3cc4c(-c5ccc(N)nn5)ccnc4n3C)CC2)c(Cl)c1 [Example 1af75] is ____.
Given back: 159
